Assay Summary: Therapeutic index (Ratio = ID50/ED50).
Rule: selectivity ratio under 30 gives No, otherwise Yes.

These solved cases illustrate the format of a correct answer.
Nc1ncnc2c1ncn2[C@H]1C=C[C@@H](CO)O1    No
CO[C@H]1C[C@H](n2cc(C)c(=O)[nH]c2=O)O[C@@H]1CO    No
Cc1cn([C@H]2C=C[C@@H](CO)O2)c(=O)[nH]c1=O    No
O=c1ccn([C@H]2C=C[C@@H](CO)O2)c(=O)[nH]1    No
Nc1ccn(C2CC(F)C(CO)O2)c(=O)n1 (stereo not given)    Yes
Cc1cn([C@H]2C[C@H](N=[N+]=[N-])[C@@H](CO)O2)c(=O)[nH]c1=O (stereo in doubt; 1a)    No
Nc1ncnc2c1ncn2[C@H]1CC[C@@H](CO)O1    Yes
CCSC1CC(n2cc(C)c(=O)[nH]c2=O)OC1CO (stereo not given)    No
Nc1ccn([C@H]2CC[C@@H](CO)O2)c(=O)n1    Yes
Cc1cn(C2CC(Br)C(CO)O2)c(=O)[nH]c1=O (stereo not given)    No

[in] # bool: selectivity ratio of Cc1cn([C@H]2C[C@H](F)[C@@H](CO)O2)c(=O)[nH]c1=O >= 30
[out] No

[in] # bool: selectivity ratio of Nc1ccn([C@H]2C=C[C@@H](CO)O2)c(=O)n1 >= 30
[out] Yes
